Reference source: the nanobody polyreactivity screen of Harvey et al. (2022)

- experiment summary: yeast display, Sf9 membrane polyspecificity reagent, FACS + sequencing; frameworks hold sequencing errors
quantity kind: polyreactivity (PSR sort gate)

Worked cases, answers included:
**Query** Query: polyreactivity (PSR sort gate); subject: QVQLVESGGGLVQAGGSLRLSCAASGSIFRIYAMGWYRQATGKETELVAAITWSGGSTYYADSVKGRFTISRDNAKNSVYLQMNSLKPEDTAVYYCAAVVIYWYQRVGYRSDYWGQGTQVTVSS
**Result** high polyreactivity

**Query** Item: QVQLVESGGGLVQAGGSLRLSCAASGSIFASNAMGWYRQAPGKQWELVAAINSGTRTKYADSVKGRFTISRDNAKNTVYLQMNSRKPEDTAVYYCAARFKGERGPAHYYWGQGTQVTVSS
**Result** high polyreactivity

**Query** Try QDQLVESGGGLVQAGGSLRLSCAASGSTFGYYVMGWYRQAPGKERELVAGISSSGGSTYYADSVKGRFTISRDNAKNTVYLQMNSLKPEDTAVYYCAAVRGTGTRRYDYWGQGTQVTVSS next.
**Result** high polyreactivity

**Query** # iterate: QVQIVESGGGLVQAGGSLRLTCAASGFTFTDYAMGWYRQAPGIERELVAVITYDSTYYADSVKGRFTISRDNAKNTVSLHMNSLKPEDTAVYYCAADSYDWGEFDYWGQGTQVTVSS
**Result** low polyreactivity

**Query** Try this sequence next: QVQLVESGGGLVQAGGSLRLSCAASGSIFYHYVMGWYRQAPGKERELVAAISSSGRTYYADSVKGRFTISRDNAKNTVYLQMNSLKPEDTAVYYCAADVHFGVGMDYWGQGTQVTVSS
**Result** low polyreactivity

**Query** Same thing, different sequence: QVQLVESGGGLVQAGGSLRLSCAASGLIFGRNAMGWYRQAPGKERELVAAITSGGSTYYADSVKGRFTISRDNAKNTVYLQMNSLKPEDTAVYYCAADVVDLYLLDYWGQGTQVTVSS
**Result** low polyreactivity

**Query** Cool, now RVQLPESGGGLVQAGGSLRLTCAASGTIFIRGDMGWYRQSPGKEREFVATIDTGSNTYYADSEKGRFTISRDNAKNAVYLQMNCLKPGDTAVYYCVVDYQLSGRLRYWGQGTQVTLSS
**Result** low polyreactivity

**Query** Now give it for QVQLVESGGGLVQAGGSLRLSCAASGFIFLQYVMGWYRQAPGKERELVAAITSGGSTYYADSVKGRFTISRDNAKNTVYLQMNSLKPEDTAVYFCATDVADNTFYALYGYDYWGQGTQVTVSS too.
**Result** low polyreactivity

**Query** Also QVQLVESGGGLVQAGGSLRLSCAASGLTFYSYAMGWYRQAPGKERELVAAITWSGGGTYYADSVKGRFTISRDNAKNTVYLQMNSLKPVDTADYYCAADYWGYDIYYGLTERESWGQGTQVTVSS , if possible.
**Result** high polyreactivity

**Query** Field entry: QVQLVESGGGLVQAGGSLRLSCAASGSILSPYAMGWYRQAPGKERELVAAISRSGDRTYYADSVKGRFTISRDNAKNTVYLQMNSLKPEDTAVYYCAAEYSWPWDYYYWGQGTQVTVSS
**Result** high polyreactivity

Below is a list of sequences. For each, state its recorded polyreactivity (PSR sort gate).
1. QVELVESGGGLVQAGGSLRLSCAASGFTFQEYAMGWYRQAPGQETELVAAISTSGDYTYYADSVKGRFTISRDNAKHTVYFQMNSLKPEDTAVYYCATGVDTYSLTVEHDSWGQGTQLTVSS
2. QVQLVESGGGLVQAGGSLRLSCASSGRIFHVYAMGWYRQAPGKERELVADITWSGGSTYYADSVKGRFTISRDNAKNTVYLQMNSLKPEDTAVYYCAASVLYGRHYSYGYWGQGTQVTVSS
3. QVQHGESGGGLVQAGGSLRLSCAASGTTLAAYTMGWYRQAPGKERELVAAINSGGGTNYADSVKGRFTISRDNAKNTVYLQMNSLKPEDTAVYYCAKVVFVRGAPGYYWGQGTQVTVSS

**Result**
["low polyreactivity", "high polyreactivity", "high polyreactivity"]
